Values compiled from patent US20250122169A1.

target.entity: PPARG/RXRA LBD heterodimer (Homo sapiens)
Construct: 2 nM WT PPARG LBD (E. coli expressed, His-TEV-Q203-Y477); fused on or other part: N-terminal His tag with TEV site on the PPARG LBD
Sequence (P37231 231-505 limits assumed): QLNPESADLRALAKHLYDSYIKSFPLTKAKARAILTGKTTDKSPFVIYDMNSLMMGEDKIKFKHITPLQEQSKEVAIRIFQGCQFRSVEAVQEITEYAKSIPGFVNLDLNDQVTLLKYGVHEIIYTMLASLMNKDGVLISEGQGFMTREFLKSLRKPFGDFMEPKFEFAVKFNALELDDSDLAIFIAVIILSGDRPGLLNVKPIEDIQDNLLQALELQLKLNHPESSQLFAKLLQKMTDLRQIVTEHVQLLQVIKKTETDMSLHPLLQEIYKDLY
Sequence (O75376 2251-2273 limits assumed, further chain): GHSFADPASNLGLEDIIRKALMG
assay.comment: PPARγ-NCOR1 recruitment assay (TR-FRET)
Format: biochemical
experimental.setup: TR-FRET, NCOR1 ID2 peptide, 80 nM Rosiglitazone, 3 hours; read-out: PPARG-NCOR recruitment assay EC50
measured.quantity: EC50

Some entries whose results are on file:
compound	EC50
CS(=O)(=O)c1cnc(C#N)cc1-c1cc(=O)c2ccc(Cl)cc2[nH]1 [Example 30]	< 10 nM
CN(C)C(=O)[C@H]1CCCN(c2c(F)cc3[nH]c(-c4cc(C#N)ncc4S(C)(=O)=O)cc(=O)c3c2F)C1 (single isomer, unassigned) [Example 34]	< 10 nM
N#Cc1ccc(Cl)c(-c2cc(=O)c3cc(F)c(F)cc3[nH]2)n1 [Example 1]	10 to 100 nM
COc1cnc(C#N)cc1-c1cc(=O)c2c(F)cc(F)cc2[nH]1 [Example 9]	100 to 1000 nM
CN1CCN(c2c(F)cc3[nH]c(-c4cc(C#N)ncc4Cl)cc(=O)c3c2F)CC1=O [Example 24]	10 to 100 nM
N#Cc1cc(-c2cc(=O)c3c(F)cc(F)cc3[nH]2)c(Cl)cn1 [Example 2]	< 10 nM
N#Cc1ncc(Cl)c(-c2cc(=O)c3c(F)cc(F)cc3[nH]2)n1 [Example 33]	< 10 nM

Attention now shifts to the item below.
Record C[S+]([O-])c1cnc(C#N)cc1-c1cc(=O)c2c(F)cc(F)cc2[nH]1 (centres unmarked) [Example 28] , field EC50: 10 to 100 nM
